Target: T1, 4H94-AA
T1 chain: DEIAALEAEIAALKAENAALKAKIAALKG
Experiment: two-hybrid library CCmax;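 further: natural log of median RNA to DNA barcode read ratio; higher means stronger binding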
Details: mean of both orientations
// classify: if (interaction score < -1) Satisfied else Not satisfied

Past entries and their recorded results:
## Task Please state whether interaction score is below -1 for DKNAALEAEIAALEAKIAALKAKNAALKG [4H3120-AA]
## Result Satisfied

## Task // query: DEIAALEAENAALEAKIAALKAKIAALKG [4H174-AA]
## Result Not satisfied

## Task How about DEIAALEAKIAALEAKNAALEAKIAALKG [4H310-AA] ?
## Result Not satisfied

## Task Would you mind doing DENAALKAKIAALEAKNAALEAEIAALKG [4H1842-AA] as well?
## Result Satisfied

## Task Repeat for the following binder: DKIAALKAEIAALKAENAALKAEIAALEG [4H2649-AA]
## Result Not satisfied

***
## Task Given the entry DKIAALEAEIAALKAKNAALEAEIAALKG [4H2162-AA] , would its reported interaction score be below -1?
## Result Not satisfied

## Task What about DEIAALKAKNAALEAKIAALEAEIAALKG [4H930-AA] ?
## Result Satisfied

## Task Please do the same for DEIAALKAEIAALKAKNAALEAKIAALEG [4H629-AA] as well.
## Result Not satisfied

## Task Now the binder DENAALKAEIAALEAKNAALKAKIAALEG [4H1597-AA]
## Result Not satisfied

## Task Follow-up item: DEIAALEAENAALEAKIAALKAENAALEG [4H171-AA]
## Result Satisfied

## Task Then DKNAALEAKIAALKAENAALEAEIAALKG [4H3410-AA] ?
## Result Not satisfied
